targetSystem: FGFR3 (UniProt P22607)
Sequence (P22607 whole entry, looked up): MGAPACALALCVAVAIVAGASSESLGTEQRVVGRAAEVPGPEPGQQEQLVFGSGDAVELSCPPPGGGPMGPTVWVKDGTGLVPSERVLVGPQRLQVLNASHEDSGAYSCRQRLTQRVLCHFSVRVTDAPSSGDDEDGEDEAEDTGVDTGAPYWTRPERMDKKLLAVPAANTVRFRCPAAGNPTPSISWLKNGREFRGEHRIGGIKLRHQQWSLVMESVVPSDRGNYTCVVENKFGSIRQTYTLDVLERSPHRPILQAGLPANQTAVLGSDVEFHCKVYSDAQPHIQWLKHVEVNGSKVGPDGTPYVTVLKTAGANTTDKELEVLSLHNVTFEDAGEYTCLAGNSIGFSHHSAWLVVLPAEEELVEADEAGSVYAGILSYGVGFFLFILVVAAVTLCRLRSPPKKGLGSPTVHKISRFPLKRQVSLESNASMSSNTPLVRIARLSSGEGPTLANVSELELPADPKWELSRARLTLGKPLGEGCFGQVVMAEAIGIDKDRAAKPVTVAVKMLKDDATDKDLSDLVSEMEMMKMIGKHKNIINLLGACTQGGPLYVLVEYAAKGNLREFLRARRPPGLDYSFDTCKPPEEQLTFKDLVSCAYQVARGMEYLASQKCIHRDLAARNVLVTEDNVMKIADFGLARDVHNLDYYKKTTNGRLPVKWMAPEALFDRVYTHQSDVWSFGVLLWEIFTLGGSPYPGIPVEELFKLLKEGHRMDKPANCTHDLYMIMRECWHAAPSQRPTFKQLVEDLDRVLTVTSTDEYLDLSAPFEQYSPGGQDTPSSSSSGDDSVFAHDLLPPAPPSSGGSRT
assayComment: phosphorylation enrichment, bacterial display (enrichment ratio); higher = better substrate or ligand; peptides without Tyr show the background
reportedMetric: phosphorylation enrichment

INSERT INTO assay_data (chain, reportedmetric, testvalue) VALUES
  ('PQEVMYAQLDH [KIR3DL2_Y398_T397M]', 'phosphorylation enrichment', 2.2),
  ('RKQQLYIAMEE [CCDC39_Y593_T594I]', 'phosphorylation enrichment', 0.543),
  ('EKGEEYGGGGG [TUBA1A_Y451_E447K]', 'phosphorylation enrichment', 0.67),
  ('RLEPVYFVAPA [LAMC2_Y250_D247E]', 'phosphorylation enrichment', 8.72),
  ('ENEGTYVCIAA [ADAMTSL3_Y1365_T1370A]', 'phosphorylation enrichment', 1.62),
  ('SGVSYYINLCQ [IGF2R_Y2025_N2020S]', 'phosphorylation enrichment', 0.824),
  ('RQQEVYLLYKQ [RARRES1_Y159_D158V]', 'phosphorylation enrichment', 1.11),
  ('RQRTAYFSLNT [CDH1_Y68_D72N]', 'phosphorylation enrichment', 0.745),
  ('QEVLEYFMKQM [PIK3CA_Y1038_A1035V]', 'phosphorylation enrichment', 1.68),
  ('ETGEPYRLSPE [EIF4G1_Y311]', 'phosphorylation enrichment', 0.783),
  ('EPNSRYTCKLE [USH2A_Y3745_Y3747C]', 'phosphorylation enrichment', 0.724),
  ('KRPAVYIDEEA [EPM2A_Y304]', 'phosphorylation enrichment', 0.704),
  ('RTLTHYKSAVK [ASNS_Y555]', 'phosphorylation enrichment', 0.545),
  ('DEDFLYREELA [POR_Y575_YF]', 'phosphorylation enrichment', 0.725),
  ('YSGDYYRIQGR [DDR2_Y741]', 'phosphorylation enrichment', 8.65),
  ('EYGFRYELVQY [UGGT2_Y1289]', 'phosphorylation enrichment', 1.17),
  ('PDSVDYPKKGY [CTSK_Y121_R122P]', 'phosphorylation enrichment', 0.654),
  ('ERRLIYASDPK [VPS13D_Y864_T865A]', 'phosphorylation enrichment', 0.479),
  ('ATHRGYDLDNP [MMUT_Y146_S148L]', 'phosphorylation enrichment', 0.727),
  ('RYFTTYDTNGR [CLCA1_Y665]', 'phosphorylation enrichment', 0.598),
  ('SVSVNYGDQVQ [GRAP_Y101]', 'phosphorylation enrichment', 0.561),
  ('PLRPDYQEPSR [DDR2_Y481]', 'phosphorylation enrichment', 0.768),
  ('KDGNGYISAAE [CALM1_Y100]', 'phosphorylation enrichment', 0.594),
  ('RAEAPYLLVSN [LRIG1_Y1054_Q1053P]', 'phosphorylation enrichment', 1.18),
  ('MSRNLYSGDFF [DDR2_Y736_YF]', 'phosphorylation enrichment', 2.16),
  ('CHSDDYVHISI [TSC1_Y406_L411I]', 'phosphorylation enrichment', 1.29),
  ('NTVLGYFIGCI [GARS1_Y408_R412C]', 'phosphorylation enrichment', 0.828),
  ('EEAAGCAQESQ [CAMKV_Y491_Y491C]', 'phosphorylation enrichment', 0.833),
  ('GPKSTYISSAG [GOLGA5_Y62_A67G]', 'phosphorylation enrichment', 0.374),
  ('PINLFYLMDLS [ITGB2_Y131_D128N_YF]', 'phosphorylation enrichment', 1.11),
  ('LFSDHYSPSGR [TMPRSS12_Y23_YF]', 'phosphorylation enrichment', 0.459),
  ('ITLPIYTKESE [ANK2_Y1455]', 'phosphorylation enrichment', 0.76),
  ('LLKKVYLMLDN [STAT1_Y203_M202V]', 'phosphorylation enrichment', 1.15),
  ('FISVGYVDDTL [HLA-B_Y51_Q56L]', 'phosphorylation enrichment', 0.801),
  ('IKRIAYEFVEM [ADA_Y84]', 'phosphorylation enrichment', 0.58);

----------
targetSystem: c-Src SH2;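 also: peptide library displayed on the E. coli surface as eCPX fusions, selected cells deep-sequenced, score is each peptide's frequency after selection divided by its frequency in the input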
assayComment: SH2 binding enrichment of the phosphorylated peptide, bacterial display (enrichment ratio); higher = better substrate or ligand; peptides without Tyr show the background
Collected SH2 binding enrichment values appear next to each entry.
reportedMetric: SH2 binding enrichment

INSERT INTO results (chain, targetsystem, testvalue) VALUES
  ('LLINKYGLSDH [SCP2_Y151_A155D]', 'c-Src SH2', 0.44),
  ('FCRITYDIFPF [INTS13_Y67_M66T_YF]', 'c-Src SH2', 0.485),
  ('CNPLCYPTIMI [OR6K6_Y160_R159C]', 'c-Src SH2', 0.42),
  ('IINENYDYLKG [NUP98_Y1664]', 'c-Src SH2', 0.728),
  ('DNPAKYFILES [DPP10_Y512]', 'c-Src SH2', 0.834),
  ('PDSVDYPKKGY [CTSK_Y121_R122P]', 'c-Src SH2', 0.601),
  ('RIGRKYKRVRF [F8_Y442_K444R]', 'c-Src SH2', 0.302),
  ('PDMHSYMVRFN [GRIN2D_Y732_YF]', 'c-Src SH2', 0.474),
  ('LEFGDCHPLKP [VPS35L_Y32_Y32C]', 'c-Src SH2', 0.529),
  ('VISNAYVDLSP [HSD17B4_Y602_A606S]', 'c-Src SH2', 3.09),
  ('RAHARYCADAC [ACOT4_Y52_R57C]', 'c-Src SH2', 0.872);

----------
Collected phosphorylation enrichment values appear next to each entry.
System: Fer (mouse)
assayComment: phosphorylation enrichment, bacterial display (enrichment ratio); higher = better substrate or ligand; peptides without Tyr show the background
reportedMetric: phosphorylation enrichment

INSERT INTO assay_data (chain, targetsystem, reportedmetric, testvalue) VALUES
  ('RRAKGYPIDLY [ITGB2_Y125]', 'Fer (mouse)', 'phosphorylation enrichment', 0.73),
  ('MPLTKYLKRIK [CNGB3_Y200_E199K]', 'Fer (mouse)', 'phosphorylation enrichment', 0.425),
  ('ATRDVYNPFET [SCAMP3_Y41_L38R]', 'Fer (mouse)', 'phosphorylation enrichment', 0.457),
  ('KAEELYIGVTV [EFHC2_Y509]', 'Fer (mouse)', 'phosphorylation enrichment', 5.31);

----------
targetSystem: Hck (UniProt P08631)
Sequence (P08631 whole entry, looked up): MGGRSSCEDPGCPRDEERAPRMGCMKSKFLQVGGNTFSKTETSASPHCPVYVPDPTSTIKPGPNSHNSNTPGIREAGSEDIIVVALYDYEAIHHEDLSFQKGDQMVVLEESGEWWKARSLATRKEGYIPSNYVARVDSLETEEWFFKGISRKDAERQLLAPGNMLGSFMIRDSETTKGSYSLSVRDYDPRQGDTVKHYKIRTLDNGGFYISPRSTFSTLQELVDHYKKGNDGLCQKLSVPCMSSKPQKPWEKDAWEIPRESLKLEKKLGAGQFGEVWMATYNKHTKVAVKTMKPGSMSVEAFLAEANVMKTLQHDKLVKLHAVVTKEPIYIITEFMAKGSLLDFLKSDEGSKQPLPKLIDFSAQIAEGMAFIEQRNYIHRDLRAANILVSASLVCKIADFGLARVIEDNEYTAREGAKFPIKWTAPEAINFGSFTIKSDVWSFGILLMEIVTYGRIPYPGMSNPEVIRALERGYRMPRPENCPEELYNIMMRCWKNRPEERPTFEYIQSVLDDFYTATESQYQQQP
assayComment: phosphorylation enrichment, bacterial display (enrichment ratio); higher = better substrate or ligand; peptides without Tyr show the background
reportedMetric: phosphorylation enrichment

INSERT INTO measurements (chain, reportedmetric, testvalue) VALUES
  ('AVEDQYFCVDC [FHL1_Y207_YF]', 'phosphorylation enrichment', 0.791),
  ('NAMRRYIEEFQ [MNS1_Y244]', 'phosphorylation enrichment', 0.413),
  ('NCLRQYVAGRF [CRB1_Y711_E710Q]', 'phosphorylation enrichment', 0.337),
  ('HGQVNYEEFVQ [CALM2_Y139_D134H]', 'phosphorylation enrichment', 1.37),
  ('PLDGGYFTLQI [TP53_Y327_E326G]', 'phosphorylation enrichment', 0.679),
  ('TESALYGCTIL [MAP3K21_Y724_V728I]', 'phosphorylation enrichment', 4.18),
  ('DKANRYFSPNF [PTEN_Y336]', 'phosphorylation enrichment', 0.402),
  ('EKRDAYVSRLN [GSR_Y150]', 'phosphorylation enrichment', 0.429),
  ('DDKEYYSVHNK [MET_Y1235_Y1230D]', 'phosphorylation enrichment', 0.791);

----------
targetSystem: Fes (UniProt P07332)
Sequence (P07332 whole entry, looked up): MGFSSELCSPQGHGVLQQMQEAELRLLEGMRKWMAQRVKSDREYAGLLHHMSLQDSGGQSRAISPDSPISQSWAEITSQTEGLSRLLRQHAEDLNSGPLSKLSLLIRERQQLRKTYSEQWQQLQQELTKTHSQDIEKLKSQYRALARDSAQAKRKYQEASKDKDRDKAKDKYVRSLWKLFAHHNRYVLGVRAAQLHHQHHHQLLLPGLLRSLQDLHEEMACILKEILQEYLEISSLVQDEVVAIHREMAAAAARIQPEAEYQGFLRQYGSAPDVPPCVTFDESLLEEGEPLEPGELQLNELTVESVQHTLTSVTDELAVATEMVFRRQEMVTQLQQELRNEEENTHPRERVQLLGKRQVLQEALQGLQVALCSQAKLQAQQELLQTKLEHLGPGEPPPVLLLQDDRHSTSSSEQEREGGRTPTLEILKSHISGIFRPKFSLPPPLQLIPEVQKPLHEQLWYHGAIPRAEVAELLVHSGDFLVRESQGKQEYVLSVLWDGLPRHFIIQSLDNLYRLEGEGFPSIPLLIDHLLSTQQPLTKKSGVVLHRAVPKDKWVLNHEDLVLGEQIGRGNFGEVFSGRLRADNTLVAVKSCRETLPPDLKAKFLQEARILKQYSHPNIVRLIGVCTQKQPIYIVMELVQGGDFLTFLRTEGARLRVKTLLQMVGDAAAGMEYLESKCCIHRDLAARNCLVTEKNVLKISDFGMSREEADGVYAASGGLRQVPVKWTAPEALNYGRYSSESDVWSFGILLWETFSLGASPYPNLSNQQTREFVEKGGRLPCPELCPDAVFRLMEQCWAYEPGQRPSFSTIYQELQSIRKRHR
assayComment: phosphorylation enrichment, bacterial display (enrichment ratio); higher = better substrate or ligand; peptides without Tyr show the background
Assign MET to entries whose phosphorylation enrichment meets or exceeds 1; assign NOT MET to the rest.

INSERT INTO results (chain, targetsystem, label) VALUES
  ('TLEKYYFAFPG [SLC1A1_Y51_F50Y]', 'Fes (UniProt P07332)', 'MET'),
  ('VEDHFYEGGIG [TKT_Y564_YF]', 'Fes (UniProt P07332)', 'MET'),
  ('IGMLIYFARKA [VCAM1_Y718_I716L]', 'Fes (UniProt P07332)', 'NOT MET'),
  ('YEEDSYSHIMA [FDPS_Y388]', 'Fes (UniProt P07332)', 'MET'),
  ('VIEQRYNETWL [SLC2A4_Y56_S55R]', 'Fes (UniProt P07332)', 'MET'),
  ('PLKFLYPNIDR [STAT1_Y668_K673R_YF]', 'Fes (UniProt P07332)', 'MET'),
  ('CPTIHYNFMCN [TP53_Y234_T230P_YF]', 'Fes (UniProt P07332)', 'MET'),
  ('VVEVTYDDVPI [FLNB_Y1308]', 'Fes (UniProt P07332)', 'MET'),
  ('GMAHNYRNSSQ [AASS_Y188]', 'Fes (UniProt P07332)', 'NOT MET'),
  ('RRDRDYTNLPS [CSF1R_Y923_E920D]', 'Fes (UniProt P07332)', 'NOT MET'),
  ('KVKSIYFHTQG [AR_Y916_P914S]', 'Fes (UniProt P07332)', 'NOT MET'),
  ('SHSMRYFDTAV [HLA-C_Y31]', 'Fes (UniProt P07332)', 'NOT MET'),
  ('CDKEFYSVHNK [MET_Y1235_Y1230C_YF]', 'Fes (UniProt P07332)', 'NOT MET'),
  ('IGEGTYGQVFK [CDK13_Y716_YF]', 'Fes (UniProt P07332)', 'NOT MET'),
  ('RAVLLYEYVGK [NATD1_Y45]', 'Fes (UniProt P07332)', 'MET'),
  ('FNNPAYFVLEG [INPPL1_Y986_YF]', 'Fes (UniProt P07332)', 'MET'),
  ('VATRWYRSPEL [CDKL5_Y177]', 'Fes (UniProt P07332)', 'NOT MET'),
  ('FADGVYQALEE [DUOX2_Y70_YF]', 'Fes (UniProt P07332)', 'MET'),
  ('GFKVRYATGSI [FGFR1_Y210_W213G_YF]', 'Fes (UniProt P07332)', 'NOT MET'),
  ('ASTHIYQIMNH [ITK_Y588_V587I]', 'Fes (UniProt P07332)', 'NOT MET'),
  ('AGQEDDDRLRP [RAC1_Y64_Y64D]', 'Fes (UniProt P07332)', 'MET'),
  ('ESKKHYGFSLF [ANXA3_Y295_F291S_YF]', 'Fes (UniProt P07332)', 'MET'),
  ('MRTMGYMPTEM [CABP5_Y62]', 'Fes (UniProt P07332)', 'NOT MET'),
  ('SVNIRYLLFPS [SERAC1_Y548]', 'Fes (UniProt P07332)', 'MET'),
  ('LIHLHYIRKDY [BBS4_Y43]', 'Fes (UniProt P07332)', 'MET'),
  ('YDRREYSRFEK [ITGB7_Y758]', 'Fes (UniProt P07332)', 'NOT MET'),
  ('SVVVPYEPPDV [TP53_Y220_E224D]', 'Fes (UniProt P07332)', 'NOT MET'),
  ('CEETFYTMKMN [MASP2_Y401_V405M]', 'Fes (UniProt P07332)', 'MET'),
  ('EFLKNYFTDKA [DSG2_Y775_R773K]', 'Fes (UniProt P07332)', 'NOT MET'),
  ('GGGGSYNNFGN [HNRNPA1_Y312_D314N]', 'Fes (UniProt P07332)', 'NOT MET'),
  ('GIVEDYRPRFF [ACVRL1_Y421_P424R_YF]', 'Fes (UniProt P07332)', 'NOT MET'),
  ('GDAMLYFPSVS [GPR143_Y177_A173D_YF]', 'Fes (UniProt P07332)', 'NOT MET'),
  ('VIESSYQVAKA [CPT1B_Y534]', 'Fes (UniProt P07332)', 'NOT MET'),
  ('FDDIAYIQKTL [PIK3CA_Y1021_R1023Q]', 'Fes (UniProt P07332)', 'NOT MET'),
  ('YGIAQYCCRMG [LRRK2_Y2023]', 'Fes (UniProt P07332)', 'NOT MET'),
  ('FRPHLYGTPSR [ADGRE2_Y670_S665F]', 'Fes (UniProt P07332)', 'NOT MET'),
  ('EILDVYIFLGP [GAA_Y340_G335E]', 'Fes (UniProt P07332)', 'MET'),
  ('GDLTDYLMKIL [ACTA1_Y190_R185G]', 'Fes (UniProt P07332)', 'NOT MET'),
  ('GGMTEYNLVVV [KRAS_Y4_K5N]', 'Fes (UniProt P07332)', 'MET');
